# inhibition per entry
# system_name: Pantothenate synthetase (Mycobacterium tuberculosis (strain ATCC 25618 / H37Rv)) (UniProt P9WIL5)
# Sequence (P9WIL5 whole entry, looked up): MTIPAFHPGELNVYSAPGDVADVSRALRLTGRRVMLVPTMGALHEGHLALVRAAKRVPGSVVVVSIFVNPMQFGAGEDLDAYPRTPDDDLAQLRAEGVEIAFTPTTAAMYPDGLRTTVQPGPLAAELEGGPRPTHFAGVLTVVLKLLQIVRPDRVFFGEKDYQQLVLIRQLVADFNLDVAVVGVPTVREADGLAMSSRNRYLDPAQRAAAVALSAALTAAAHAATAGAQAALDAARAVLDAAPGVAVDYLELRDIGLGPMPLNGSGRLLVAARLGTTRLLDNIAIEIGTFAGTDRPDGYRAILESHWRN
# experiment: Coupled enzyme confirmation of inhibitors against recombinant Mtb PanC (AID 375);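 also: 0% = full reaction with vehicle and 100% = no enzyme background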
# conditions_used: coupled enzyme assay; at 10 µM, hits give high values
assay_readout: inhibition (%)

compound="CCOC(=O)N1CCC(N(C(=O)Nc2cccc(OC)c2)C(C)CC)CC1 (stereo unspecified)" assay_readout=inhibition endpoint_value=0
compound=COc1ccccc1CC(=O)NCc1ccc2c(c1)OCO2 assay_readout=inhibition endpoint_value=0
compound=CCOc1cc(NC(=O)c2ccco2)c(OCC)cc1NC(=O)COc1ccccc1C assay_readout=inhibition endpoint_value=0
compound=O=C(CSc1nc2ccccc2o1)NC(=O)NCc1ccco1 assay_readout=inhibition endpoint_value=0
compound=CC(=O)N(C(C)=O)c1ncc2c([nH]c3ccccc32)c1C#N assay_readout=inhibition endpoint_value=0
compound=COc1cccc2cc(C(=O)N3CCc4ccccc43)c(=O)oc12 assay_readout=inhibition endpoint_value=1
compound="CS(=O)(=O)N1CCCC(C(=O)NCCCN2CCC(Cc3ccccc3)CC2)C1 (stereo unspecified)" assay_readout=inhibition endpoint_value=0
compound=COC(=O)c1cc(S(=O)(=O)N2CCOCC2)c(N2CCOCC2)cc1N1CCOCC1 assay_readout=inhibition endpoint_value=2
compound=COCCn1c(Sc2nc(C)cs2)nc2c1c(=O)[nH]c(=O)n2C assay_readout=inhibition endpoint_value=0
compound=CCN(CC)S(=O)(=O)c1ccc(C(=O)N2CCN=C2SCc2cccnc2)cc1 assay_readout=inhibition endpoint_value=0
compound=Clc1ccc(Cl)c(-c2nn3c(COc4ccccc4)nnc3s2)c1 assay_readout=inhibition endpoint_value=4

----------
# system_name: Pantothenate synthetase (Mycobacterium tuberculosis (strain ATCC 25618 / H37Rv))
# experiment: Coupled enzyme confirmation of inhibitors against recombinant Mtb PanC (AID 375);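 also: 0% = full reaction with vehicle and 100% = no enzyme background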
# conditions_used: coupled enzyme assay; at 10 µM, hits give high values
Active and inactive are the calls of the source. How the calls were made is not given here.
The compounds listed here are annotated with their inhibition.
assay_readout: inhibition

smiles_data=O=C(CN(Cc1ccco1)C(=O)CNS(=O)(=O)c1ccc(F)cc1)NCCc1ccccc1 endpoint_value="3% (inactive)"
smiles_data=O=C(Nc1cnn(Cc2ccc(Cl)cc2Cl)c1)c1noc2c1CCCC2 endpoint_value="4% (inactive)"
smiles_data=Cn1c(=O)c2c(nc(CN3CCN(Cc4ccccc4)CC3)n2Cc2cccc(Cl)c2)n(C)c1=O endpoint_value="0% (inactive)"
smiles_data=CCN(CC)c1ccc(NC(=O)c2cncc(Br)c2)cc1 endpoint_value="0% (inactive)"
smiles_data=Cc1nnc(Nc2ccccn2)c2ccccc12 endpoint_value="0% (inactive)"
smiles_data=Cc1ccc(-c2nn(C)c(=O)c3ccccc23)cc1S(=O)(=O)NCCN1CCOCC1 endpoint_value="2% (inactive)"

----------
# system_name: Pantothenate synthetase (Mycobacterium tuberculosis (strain ATCC 25618 / H37Rv)) (UniProt P9WIL5)
# experiment: Coupled enzyme confirmation of inhibitors against recombinant Mtb PanC (AID 375);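 also: 0% = full reaction with vehicle and 100% = no enzyme background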
# conditions_used: coupled enzyme assay; at 10 µM, hits give high values
Cut-off 1% on inhibition, inclusive. At or above means MET; below means NOT MET.

molecule=C=CCSc1n[nH]c(-c2ccc(OC)cc2)n1 classification="NOT MET"
molecule="CCCCCC1CC(CC#CCN2CCOCC2)C(=O)O1 (configuration not stated)" classification=MET
molecule="CCC(NC(C)C)C(O)c1ccc(O)c2[nH]c(=O)ccc12 (configuration not stated)" classification="NOT MET"
molecule=Cc1ccc(N=C2NC(=O)CS2)c(C)c1 classification="NOT MET"
molecule=N#CCCN1CCN(S(=O)(=O)c2ccc(S(=O)(=O)NC3CCCCC3)cc2)CC1 classification="NOT MET"
molecule=CC(=O)c1cc(-c2ccc(F)cc2)n(CCC(=O)Nc2cc(C)[nH]n2)c1C classification=MET
molecule="CCOC(=O)CSC1=C(C#N)C(c2ccc3c(c2)OCO3)CC(=O)N1 (configuration not stated)" classification="NOT MET"
molecule="COc1ccc(C2C(=O)N(C3CCCCC3)CC(=O)N2Cc2ccco2)cc1 (configuration not stated)" classification=MET
molecule=CCCn1cnc2c(cnn2-c2ccc(F)cc2)c1=O classification=MET
molecule=O=C(CN1CCOCC1)N1CCN(C(=O)CN2CCOCC2)CC1 classification=MET
molecule=Cc1cc(OCC(=O)N2CCCC2)cc(C)c1Cl classification=MET
molecule=CCN(CC)S(=O)(=O)c1ccc(Cl)c(C(=O)OC)c1 classification=MET
molecule=COC(=O)CN(c1ccc(C)c(Cl)c1)S(C)(=O)=O classification="NOT MET"
molecule="CCOC(=O)C1CCCN(c2c(Nc3ccc(C)c(C)c3)c(=O)c2=O)C1 (configuration not stated)" classification=MET
molecule=Cc1cc(C(N)=O)c2cc(Br)ccc2n1 classification=MET
molecule=CCN1CCN(C(=O)C2CCN(C(=O)c3cc4sccc4n3CC)CC2)CC1 classification=MET
molecule=O=C(CS(=O)(=O)c1cn(Cc2ccc(Cl)cc2)c2ccccc12)N1CCOCC1 classification="NOT MET"
molecule=COc1ccccc1-n1c(=O)[nH]c2c(C(N)=O)nc(CC(C)C)nc21 classification="NOT MET"
molecule=CCOC(=O)c1cnn(-c2cc(C)nc3c(-c4ccccc4)c(C)nn23)c1N classification=MET
molecule=O=C(NC(=O)c1cccc(F)c1)OC[C@@H]1CCCN2CCCC[C@H]12 classification="NOT MET"
molecule="COc1ccc(CN2CC(C(=O)NCCCOC(C)C)CC2=O)cc1 (configuration not stated)" classification=MET
molecule=CCCn1c(NCc2cc(C)ccc2O)nc2ccccc21 classification="NOT MET"
molecule=CCOC(=O)c1cc(NC(=O)SCC(=O)O)c(C)nc1C classification="NOT MET"
molecule="O=S1(=O)CCC(NS(=O)(=O)/C=C/c2ccccc2)C1 (configuration not stated)" classification=MET
molecule=O=C(c1ncn[nH]1)N1CCN(c2nc(-c3ccccc3)cs2)CC1 classification=MET
molecule=O=C(O)CCCC(=O)NCCc1ccncc1 classification="NOT MET"
molecule=CCN(CC)CCOC(=O)c1ccc(NC(=O)COc2cc(=O)n(CC)c3ccccc23)cc1 classification=MET
molecule="CCOC(=O)CNC(=O)C(Cc1ccccc1)NS(=O)(=O)c1ccc2c(c1)CCC(=O)N2 (configuration not stated)" classification="NOT MET"
molecule=CCOC(=O)Cn1nnnc1CN(Cc1ccc(OC)cc1)Cc1cc2cc(C)cc(C)c2[nH]c1=O classification=MET
molecule=COc1ccc(S(=O)(=O)N2CCN(S(=O)(=O)c3ccc4c(c3)OCCO4)CC2)cc1C classification="NOT MET"
molecule=OC1C[N+]2(CCCCC2)C1 classification="NOT MET"
molecule=Cc1[nH]nc2c1C(=O)CCC2 classification="NOT MET"
molecule=Cc1cc(C(=O)Nc2cc(C)n(Cc3ccc(Cl)cc3)n2)no1 classification=MET
molecule=CC(=O)C1=C(C)NC(C)=C(C(C)=O)C1c1cccs1 classification="NOT MET"
molecule="COP(C)(=O)c1c(C)nn(-c2ccccc2)c1C (configuration not stated)" classification="NOT MET"
molecule=Cn1c(=O)[nH]c(=O)c2c1nc(N1CCCCC1)n2CCSc1ncccn1 classification="NOT MET"
molecule="c1ccc(Cn2nnnc2C(c2cccs2)N2CCSCC2)cc1 (configuration not stated)" classification="NOT MET"
molecule=COc1cc(OC)cc(-c2nc(N)n[nH]2)c1 classification="NOT MET"
molecule=COc1ccc(Cl)cc1NC(=O)COc1cccc(-n2cnnn2)c1 classification="NOT MET"
molecule="O=C(NCC1CCCO1)c1cccc(N2CCCC2=O)c1 (configuration not stated)" classification="NOT MET"
molecule=c1ccc(Oc2ccc(-n3cnnn3)cc2)cc1 classification=MET
molecule=O=C(NCc1ccc(F)cc1)C1CCN(C(=O)NCc2ccccc2)CC1 classification="NOT MET"
molecule=Cc1sc2ncnc(OCC(=O)N3CCN(S(=O)(=O)c4ccccc4)CC3)c2c1C classification="NOT MET"
molecule="CCN1CCCC1CNC(=O)c1cc2c(=O)n(C)c3ccccc3c2n1C (configuration not stated)" classification="NOT MET"

----------
# inhibition annotations
# system_name: Pantothenate synthetase (Mycobacterium tuberculosis (strain ATCC 25618 / H37Rv)) (UniProt P9WIL5)
# experiment: Coupled enzyme confirmation of inhibitors against recombinant Mtb PanC (AID 375);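 also: 0% = full reaction with vehicle and 100% = no enzyme background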
# conditions_used: coupled enzyme assay; at 10 µM, hits give high values
assay_readout: inhibition (%)

compound="COc1ccc(S(=O)(=O)NC(C)C(=O)Nc2cccc(C(C)=O)c2)cc1 (stereo not drawn)" assay_readout=inhibition unit_info=% endpoint_value=0
compound=O=C(CSc1nnc(Cc2ccccc2)n1-c1cccc(Cl)c1)N1CCOCC1 assay_readout=inhibition unit_info=% endpoint_value=0
compound=Cn1cnc(S(=O)(=O)Nc2ccc(C(F)(F)F)cc2)c1 assay_readout=inhibition unit_info=% endpoint_value=0
compound=O=C(OCC(=O)c1ccc[nH]1)c1ccc(S(=O)(=O)N2CCCCC2)cc1 assay_readout=inhibition unit_info=% endpoint_value=1
compound=CN(Cc1ccccc1)Cc1c[nH]c2ccccc12 assay_readout=inhibition unit_info=% endpoint_value=0
compound=CC(C)CN1C(=O)c2ccc(C(=O)Nc3nccs3)cc2C1=O assay_readout=inhibition unit_info=% endpoint_value=0
compound=CC(=O)c1cc2c(=O)c3cc(C)ccc3oc2nc1C assay_readout=inhibition unit_info=% endpoint_value=0
compound=Cc1nc(NCc2ccco2)c2oc3ccccc3c2n1 assay_readout=inhibition unit_info=% endpoint_value=4
compound=COCCNC(=O)CN1CCC(NC(=O)Nc2ccc(C(F)(F)F)cc2)CC1 assay_readout=inhibition unit_info=% endpoint_value=4
compound=O=C(Nc1nccs1)c1cccc(NC(=O)C2CC2)c1 assay_readout=inhibition unit_info=% endpoint_value=6
compound=COc1cc2c(cc1OC)-c1cc(OCc3cccnc3)nc(=O)n1CC2 assay_readout=inhibition unit_info=% endpoint_value=12
compound=CCCCOC(=O)Nc1nc2ccc(OC)cc2s1 assay_readout=inhibition unit_info=% endpoint_value=5
compound="COCCN1C(=O)C(=O)/C(=C(/O)c2cccc(S(=O)(=O)N(C)C)c2)C12C(=O)N(C)c1ccccc12 (stereo not drawn)" assay_readout=inhibition unit_info=% endpoint_value=8
compound=CC(=O)Nc1ccc(S(=O)(=O)NCc2csc(-c3cccnc3)n2)cc1 assay_readout=inhibition unit_info=% endpoint_value=0
compound=COc1cc2c(C#N)c(N3CCOCC3)nc(N)c2c(N)n1 assay_readout=inhibition unit_info=% endpoint_value=0
compound=COc1cc(C(=O)Nc2cccc(-c3nc4cc(C)ccc4o3)c2)cc(OC)c1OC assay_readout=inhibition unit_info=% endpoint_value=3
compound="CCc1ccc(N2CC(C(=O)OCC(=O)Nc3cc(C)on3)CC2=O)cc1 (stereo not drawn)" assay_readout=inhibition unit_info=% endpoint_value=0
compound=O=C(Cn1ncc2c1-c1ccccc1OC2)N1CCc2ccccc21 assay_readout=inhibition unit_info=% endpoint_value=0
compound=CCOc1ccc2cc(C#N)c(SCC(=O)N3CCOCC3)nc2c1 assay_readout=inhibition unit_info=% endpoint_value=0
compound=Cc1ccc(S(=O)(=O)N2CCOCC2)cc1C(=O)Nc1ccc(-c2cn3ccsc3n2)cc1 assay_readout=inhibition unit_info=% endpoint_value=3
compound=CCc1c(C)nc(N)n2c(SCC(=O)N3CCCc4ccccc43)nnc12 assay_readout=inhibition unit_info=% endpoint_value=2
compound=O=C(Nc1ccc(NC(=O)C2CC2)cn1)c1ccccc1Cl assay_readout=inhibition unit_info=% endpoint_value=0
compound=CCOC(=O)c1nnc2ccnn2c1N assay_readout=inhibition unit_info=% endpoint_value=0

All values here come from PubChem BioAssay.
